Each recorded value in this set is attributed to PubChem BioAssay (Tox21).

Assay: qHTS assay for identifying genotoxic compounds that show differential cytotoxicity against isogenic chicken DT40 cell lines with known DNA damage response pathways - wild type cell line (AID 743012); also: nearly all actives have a fitted effect of over 60% in size; also: potency is read from the fitted curve at half-maximal effect
Conditions: DT40 wild type chicken cells viability, CellTiter-Glo, 40 h; series mostly up to 68.4 µM
Description: U.S. Tox21 Program National Center for Advancing Translational Sciences [NCATS] NIH Chemical Genomics Center [NCGC] U.S. Environmental Protection Agency [EPA] National Institutes of Environmental Health Sciences [NIEHS] National Toxicology Program [NTP] U.S. Food and Drug Administration [FDA] Tox21 Assay Overview: DNA repair pathways play a critical role in cellular homeostasis by repairing DNA damage induced by endogenous processes and xenobiotics. […]
Results filed as inconclusive are left out. Active and inactive are the calls of the source. Calls follow the shape of the dose curve; as a rule, active = well fitted cell-killing curve with a large enough effect in the repeat runs; inconclusive = weak or mixed curves, or effect the other way; inactive = no such curve, though single readings can be large or run the other way.
reported.metric: Potency

Consider the reported Potency for these compounds:
1) CN1CCC(OC(c2ccccc2)c2ccccc2)CC1; 11.4 µM (active)
2) Oc1ccc(Cc2ccccc2)cc1; inactive
3) C=CC(C)(CCC=C(C)C)OC(=O)c1ccccc1 (stereo unspecified); inactive
4) CN(c1nccc(=O)[nH]1)C1CCN(c2nc3ccccc3n2Cc2ccc(F)cc2)CC1; inactive
5) CC[C@]12CCCN3CCc4c(n(c5ccccc45)C(=O)C1)[C@@H]32; 4.52 µM (active)

Sample `CN1CCN(C2=Nc3ccccc3Sc3ccc(Cl)cc32)CC1` — what was its Potency? 8.41 µM (active)

###

target: Cytochrome P450 1A2 (Homo sapiens); experiment: Cytochrome P450 Family 1 Subfamily A Member 2 (CYP1A2) small molecule antagonists: luciferase reporter qHTS assay (AID 1671199); settings: P450-Glo CYP1A2 enzyme, luciferin luminescence, 1 h; series mostly up to 115 µM; also: nearly all actives have a fitted effect of over 50% in size
Results filed as inconclusive are left out. Calls of active or inactive are those of the source. Calls follow the shape of the dose curve; as a rule, active = well fitted inhibition curve with a large enough effect in the repeat runs; inconclusive = weak or mixed curves; inactive = no such curve, though single readings can be large or run the other way.
Valid outcomes are listed here; reply with one: active, inactive

What outcome does the record of this test show for `CC1(C)CCC(C)(C)c2cc(NC(=O)c3ccc(C(=O)O)cc3)ccc21` ? inactive

Another compound to look at: Cc1ccc(C(=O)C(C)CN2CCCCC2)cc1 (stereo unspecified) inactive

Another compound to look at: `Cc1ccc(C(N)=O)cc1N` active

Another compound to look at: `Cc1ccc(O)c([C@H](CCN(C(C)C)C(C)C)c2ccccc2)c1` inactive

Another compound to look at: `CC(=O)Nc1ccc(/C=N/NC(N)=S)cc1` inactive

Another compound to look at: `COc1ccc([C@@H]2Sc3ccccc3N(CCN(C)C)C(=O)[C@@H]2OC(C)=O)cc1` inactive

###

assay: qHTS assay to identify small molecule agonists of the retinoic acid receptor (RAR) signaling pathway (AID 1159553); conditions: C3RL4 RARE luciferase reporter, agonist, 6 h; series mostly up to 73.3 µM
Results filed as inconclusive are left out. Active and inactive are the calls of the source. Calls follow the shape of the dose curve; as a rule, active = well fitted activation curve with a large enough effect in the repeat runs; inconclusive = weak or mixed curves, or effect the other way; inactive = no such curve, though single readings can be large or run the other way.
Valid outcomes are listed here; reply with one: active, inactive

What outcome does the record of this test show for `CC(=O)c1c(C)c([N+](=O)[O-])c(C(C)(C)C)c([N+](=O)[O-])c1C` ? inactive

Another molecule to look at: CCC(=O)OC(C)(C)C1CC=C(C)CC1 (configuration not stated) inactive

Another molecule to look at: `O=C1Nc2cc(Cl)ccc2Oc2ccccc21` inactive

Another molecule to look at: `COC(Cc1ccccc1)OC` inactive

Another molecule to look at: `CCCCCCCCCCCCCCCC(=O)OC/C=C(C)/C=C/C=C(C)/C=C/C1=C(C)CCCC1(C)C` inactive

Another molecule to look at: `O=C1CCCCCO1` inactive

Another molecule to look at: `N#Cc1c(F)cccc1F` inactive

Another molecule to look at: `N#CCc1cccc(C(F)(F)F)c1` inactive

Another molecule to look at: `Cc1cc(CC(=O)O)c(C)n1-c1ccc(Cl)cc1` inactive

Another molecule to look at: `CC(=O)O[C@@H]1C(=O)O[C@@H]2[C@H]1OC(=O)[C@@H]2OC(C)=O` inactive

Another molecule to look at: `CN(C)CCCNCCCN` inactive

Another molecule to look at: `O=S1(=O)c2cccc3cccc(c23)N1CCCN1CCN(c2ccc(F)cc2)CC1` inactive

Another molecule to look at: `CC(C)CCCCCCOC(=O)c1ccc(C(=O)OCCCCCCC(C)C)c(C(=O)OCCCCCCC(C)C)c1` inactive

Another molecule to look at: `CCN(CC)CCOC(=O)C1(c2ccccc2)CCCC1` inactive

Another molecule to look at: `O=C(O)/C=C/c1cnc[nH]1` inactive

Another molecule to look at: CCCCOC(O)CC (configuration not stated) inactive

Another molecule to look at: `O=C(CC(=O)c1ccccc1)c1ccccc1` active

Another molecule to look at: `Cl/C(=C\n1cncn1)c1ccc(Cl)cc1Cl` inactive

Another molecule to look at: `Oc1ccc(O)c2c(O)cccc12` inactive

Another molecule to look at: CCOC(=O)C1=C(C)NC(C)=C(C(=O)OC)C1c1cccc([N+](=O)[O-])c1 (configuration not stated) inactive

Another molecule to look at: `Cn1c(N)nc2nc[nH]c2c1=O` inactive

Another molecule to look at: `Cc1ncsc1CCO` inactive

Another molecule to look at: `O=C(Cl)c1ccc([N+](=O)[O-])cc1` inactive

Another molecule to look at: `CC(=O)N(O)CCCCCNC(=O)CCC(=O)N(O)CCCCCNC(=O)CCC(=O)N(O)CCCCCN` inactive

Another molecule to look at: `CN(c1nccc(=O)[nH]1)C1CCN(c2nc3ccccc3n2Cc2ccc(F)cc2)CC1` inactive

Another molecule to look at: OCCC1CCCCN1 (configuration not stated) inactive

Another molecule to look at: `O=[N+]([O-])c1cccc(Cl)c1Cl` inactive
